study.system: Cytochrome P450 3A4 (Homo sapiens, UniProt P08684)
Sequence (P08684 whole entry): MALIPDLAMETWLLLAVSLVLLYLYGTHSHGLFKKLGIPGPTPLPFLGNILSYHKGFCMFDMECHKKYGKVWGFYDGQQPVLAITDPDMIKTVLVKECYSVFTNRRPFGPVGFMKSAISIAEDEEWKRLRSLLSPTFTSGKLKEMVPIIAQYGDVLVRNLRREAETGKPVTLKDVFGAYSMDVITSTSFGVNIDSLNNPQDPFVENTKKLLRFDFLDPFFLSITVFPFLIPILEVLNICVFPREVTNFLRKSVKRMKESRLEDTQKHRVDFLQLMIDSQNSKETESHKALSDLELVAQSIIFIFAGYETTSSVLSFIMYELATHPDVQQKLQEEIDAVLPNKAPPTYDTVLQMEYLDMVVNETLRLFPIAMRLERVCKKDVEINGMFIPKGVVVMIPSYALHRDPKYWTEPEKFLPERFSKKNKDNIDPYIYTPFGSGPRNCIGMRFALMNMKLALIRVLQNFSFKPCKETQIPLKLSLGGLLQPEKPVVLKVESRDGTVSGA
readout.type: IC50

Which IC50 reading was recorded for the molecule COc1cc(C)[nH]c(=O)c1CN1CCc2c(Cl)cc([C@H](OC)C3COC3)c(Cl)c2C1=O [MEVROMETOSTAT] ? > 30 µM

###

logD values, listed per item
protocol.text: Lipophilicity, log D of the compound at pH 7.4
stated.conditions: buffer, pH 7.4
Lab note: jot the number down without any unit.

Answered cases to consult:
Which logD reading was recorded for the molecule COC(c1cc(Cl)c2c(c1Cl)C(=O)N(Cc1c(C)cc(C)[nH]c1=O)CC2)C1CCN(C(=O)CO)CC1 (single isomer, unassigned; (-)) ? 2.3

Which logD reading was recorded for the molecule COC(C)c1cc(Cl)c2c(c1Cl)C(=O)N(Cc1c(C)cc(C)[nH]c1=O)CC2 (single isomer, unassigned; (+)) ? 3.4

Which logD reading was recorded for the molecule CCOC(c1cc(Cl)c2c(c1Cl)C(=O)N(Cc1c(C)cc(C)[nH]c1=O)CC2)C1CS(=O)(=O)C1 (single isomer, unassigned) ? 2.3

Next:
Which logD reading was recorded for the molecule COc1cc(C)[nH]c(=O)c1CN1CCc2c(Cl)cc(C(OC)C3CCOC3)c(Cl)c2C1=O (single isomer, unassigned; form 2) ? 2.4

Which logD reading was recorded for the molecule COC(c1cc(Cl)c2c(c1Cl)C(=O)N(Cc1c(C)cc(C)[nH]c1=O)CC2)C1CCN(C)CC1 (single isomer, unassigned; (-)) ? 1.5

Which logD reading was recorded for the molecule CCC(CO)c1cc(Cl)c2c(c1Cl)C(=O)N(Cc1c(C)cc(C)[nH]c1=O)CC2 (stereo in doubt; (-)-5b) ? 2.9

Which logD reading was recorded for the molecule COC(c1cc(Cl)c2c(c1Cl)C(=O)N(Cc1c(C)cc(C)[nH]c1=O)CC2)C1CCOCC1 (single isomer, unassigned; (-)) ? 3.5

Which logD reading was recorded for the molecule COC(c1cc(Cl)c2c(c1Cl)C(=O)N(Cc1c(C)cc(C)[nH]c1=O)CC2)C1CCN(C2COC2)CC1 (single isomer, unassigned; (-)) ? 2.8

Which logD reading was recorded for the molecule COc1cc(C)[nH]c(=O)c1CN1CCc2c(Cl)cc(C(OC)C3(C)COC3)c(Cl)c2C1=O (stereo in doubt; (-)-24b) ? 2.2

Source of measurements: ChEMBL document CHEMBL4024771
